assay target: Hind III (Haemophilus influenzae)
Construct: purchased New England BioLabs
Sequence (P43870 whole entry): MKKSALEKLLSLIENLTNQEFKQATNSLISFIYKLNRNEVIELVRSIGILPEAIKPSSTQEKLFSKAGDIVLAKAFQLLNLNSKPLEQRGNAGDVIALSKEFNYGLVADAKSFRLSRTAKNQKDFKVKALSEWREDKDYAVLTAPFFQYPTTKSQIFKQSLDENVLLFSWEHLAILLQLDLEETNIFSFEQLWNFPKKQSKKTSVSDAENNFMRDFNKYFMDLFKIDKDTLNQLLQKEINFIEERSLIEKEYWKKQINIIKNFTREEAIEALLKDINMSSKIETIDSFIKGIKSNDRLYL
procedure text: Restriction enzyme assay on pUC19
Type: biochemical
Where no end group is shown, it is not given here.
metric name: pIC50
By convention, pIC50 is the negative base-10 log of a molar concentration.

Q. Which pIC50 is reported with Hind III (Haemophilus influenzae) for this entry: KWWCRW-NH2 [Peptide 59, KWWCRW] ?
A. 4.32

====

assay target: Vaccinia topoisomerase (type Ib) (Vaccinia virus, UniProt P68698)
Construct: made in house; host or cells: Escherichia coli BL21 infected with bacteriophage λCE6
procedure text: biochemical
test parameters: IC50 for plasmid relaxation (activity reduced by one-half), pUC19 DNA
Where no end group is shown, it is not given here.
metric name: pIC50
By convention, pIC50 is the negative base-10 log of a molar concentration.

Q. Reported pIC50, substance KWWCRW-NH2 [Peptide 59, KWWCRW] : ____
A. 5.46

====

assay target: bacteriophage λ Integrase (Int) (Escherichia phage lambda)
Sequence (P03700 whole entry): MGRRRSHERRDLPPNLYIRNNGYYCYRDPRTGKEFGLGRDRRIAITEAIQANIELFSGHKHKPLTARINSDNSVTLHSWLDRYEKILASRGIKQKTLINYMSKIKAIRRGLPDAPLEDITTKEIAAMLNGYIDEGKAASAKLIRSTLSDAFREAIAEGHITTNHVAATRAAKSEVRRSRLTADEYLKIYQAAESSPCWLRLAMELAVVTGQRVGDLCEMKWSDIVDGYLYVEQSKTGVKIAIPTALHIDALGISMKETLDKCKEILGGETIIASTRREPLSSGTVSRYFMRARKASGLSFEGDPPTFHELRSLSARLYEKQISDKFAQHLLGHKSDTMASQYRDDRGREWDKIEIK
Sequence (P0A6X7 whole entry partner): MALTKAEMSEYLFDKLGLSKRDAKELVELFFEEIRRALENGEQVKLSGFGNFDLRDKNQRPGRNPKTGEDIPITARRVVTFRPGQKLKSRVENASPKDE
Sequence (P0A6Y1 whole entry partner): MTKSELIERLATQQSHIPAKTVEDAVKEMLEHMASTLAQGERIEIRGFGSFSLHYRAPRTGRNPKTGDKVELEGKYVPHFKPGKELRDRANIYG
procedure text: Int-mediated integrative recombination
Type: biochemical
test parameters: IC50, inhibition of integrative recombination, integration pathway
Protocol: FIG. 11 depicts effect of peptide KWWCRW (diamonds) and peptide KWWWRW (squares) on the remaining 3 pathways of Int-mediated recombination. Recombination extents were normalized to the amount of recombination in untreated reactions and expressed as relative % recombination. A. Effect of peptides on integrative recombination (IC50 values for both peptides are roughly 0.2 μM). […] Int Assays. […] Dried gels were visualized and quantitated using a Molecular Dynamics PhosphorImager.
Where no end group is shown, it is not given here.
metric name: IC50 (nM)
State the answer as a number, implicitly in nM.

Q. Which IC50 is reported with bacteriophage λ Integrase (Int) (Escherichia phage lambda) for this entry: KWWCRW-NH2 [Peptide 59, KWWCRW] ?
A. 300

====

assay target: Vaccinia topoisomerase (type Ib) (Vaccinia virus)
Construct: made in house; host or cells: Escherichia coli BL21 infected with bacteriophage λCE6
procedure text: biochemical
Format: biochemical
test parameters: IC50 for DNA cleavage (covalent adduct formation)
pIC50: −log10 of the molar value. Where no end group is shown, it is not given here.
metric name: pIC50

Q. Which pIC50 is reported with Vaccinia topoisomerase (type Ib) (Vaccinia virus) for this entry: KWWWRW-NH2 [Peptide 56, KWWWRW] ?
A. ~6.30

====

assay target: bacteriophage λ Integrase (Int) (Escherichia phage lambda)
procedure text: Int-mediated bent-L recombination
Type: biochemical
test parameters: IC50, accumulation of Holliday junctions, bent-L pathway
Where no end group is shown, it is not given here.
metric name: IC50 (nM)
State the answer as a number, implicitly in nM.

Q. Reported IC50, substance WKHYNY-NH2 [Peptide 52, WKHYNY] : ____
A. 200
